Field: IC50. Provide a value for each of the molecules that follow.
- Experimental target: Rac GTPase-activating protein 1 (Homo sapiens, UniProt Q9H0H5)
- Sequence (Q9H0H5 whole entry): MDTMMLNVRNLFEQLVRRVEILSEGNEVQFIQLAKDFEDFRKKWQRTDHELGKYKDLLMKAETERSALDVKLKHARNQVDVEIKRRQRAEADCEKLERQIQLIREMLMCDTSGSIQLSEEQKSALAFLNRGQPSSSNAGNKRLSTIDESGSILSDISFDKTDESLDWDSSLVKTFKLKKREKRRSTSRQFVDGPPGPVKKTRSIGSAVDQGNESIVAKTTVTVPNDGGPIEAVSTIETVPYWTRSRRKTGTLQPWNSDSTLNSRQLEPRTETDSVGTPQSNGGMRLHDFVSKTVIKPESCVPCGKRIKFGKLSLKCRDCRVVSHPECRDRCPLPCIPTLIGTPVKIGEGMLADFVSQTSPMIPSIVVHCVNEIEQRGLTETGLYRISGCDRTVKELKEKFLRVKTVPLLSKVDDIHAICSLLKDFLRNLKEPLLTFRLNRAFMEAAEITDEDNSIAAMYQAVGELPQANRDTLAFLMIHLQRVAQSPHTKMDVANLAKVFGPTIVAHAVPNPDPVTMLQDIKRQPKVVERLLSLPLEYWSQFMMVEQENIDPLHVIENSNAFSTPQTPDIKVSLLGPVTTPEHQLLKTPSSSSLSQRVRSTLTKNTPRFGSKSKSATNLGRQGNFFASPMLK
- Experimental details: MgcRacGAP GTPase-activating activity inhibitors, confirmation, biochemical, ADP Hunter fluorescence, primary and confirmatory (AID 624330)
- Assay type: functional
Calls of active or inactive are those of the source.

Record `Cc1cc(SCC(=O)c2ccc(O)c(O)c2)nc2ccccc12` , field IC50: 58.2 µM (active)

Record `CN(C)c1ccc(/N=C/C=C2\N(C)c3ccccc3C2(C)C)cc1` , field IC50: 12.2 µM (active)

Record COc1ccc(C2NC(c3ccc(OC)cc3OC)C(C)C(=O)C2C)c(OC)c1 (stereo not drawn) , field IC50: 116 µM (active)

Record `COc1cc(CNCCc2ccc3c(c2)OCO3)cc(OC)c1OC` , field IC50: 127 µM (active)

Record `COc1cc(/C=N/NC(=O)Cn2nnc3ccccc32)ccc1O` , field IC50: 24.3 µM (active)

Record `COc1cc(Br)c(CNc2cc(C)ccc2C)cc1OC` , field IC50: 97.4 µM (active)

Record `COc1ccc(-c2cnnc(N/N=C/c3ccc(O)c(O)c3)n2)cc1` , field IC50: 63.9 µM (active)

Record `CNc1nc2c3ccccc3n(C(C)=O)c2s1` , field IC50: 184 µM (active)

Record `Cc1ccc(O)c(/C=N/c2ccc3[nH]ncc3c2)c1` , field IC50: 27.7 µM (active)

Record `COc1cc(/C=C/C(=O)OCC(=O)c2ccc[nH]2)ccc1O` , field IC50: 32.2 µM (active)

Record `COc1cc(/C=N/NC(=O)CNc2nnc(O)nc2O)ccc1O` , field IC50: 35.9 µM (active)

Record `COc1cc(/C=C2/C(=O)NN(c3ccc(Cl)cc3)C2=O)cc(Br)c1O` , field IC50: 103 µM (active)

Record `COC(=O)c1ccc2c(c1)C(C)(C)C(/C=C/c1ccc(O)cc1)=[N+]2C` , field IC50: 29.5 µM (active)

Record `Cc1ccc(CN2CCN(Cc3ccco3)CC2)cc1` , field IC50: 72.7 µM (active)

Record `Clc1cc(Cl)c(OCCCCn2cncn2)c(Cl)c1` , field IC50: 156 µM (active)

Record `COc1cc(/C=C/CN2CCC(Oc3ccc(C(=O)N4CCCC4)cc3)CC2)ccc1O` , field IC50: 81.2 µM (active)

Record `C=CCOC(=O)c1cc(-c2ccc(/C=C3\C(=O)NC(=O)C(C#N)=C3C)o2)ccc1Cl` , field IC50: 229 µM (active)

Record `CCc1ccc(NC(=O)CNCc2ccc(OC)c(OC)c2)cc1` , field IC50: 131 µM (active)

* * *

Field: AC50. Provide a value for each of the molecules that follow.

Lab note: molecule `CN1CCN(c2ncnc3ccc(-c4ccccc4Cl)cc23)CC1` tested on Cytochrome P450 2D6 (Homo sapiens); recorded AC50 was 25.1 µM (inconclusive)

Lab note: molecule `S=C(Nc1cccc(Cl)c1)NC1CCCCC1` tested on Cytochrome P450 2D6 (Homo sapiens); recorded AC50 was 44.7 µM (inconclusive)

Lab note: molecule `O=C(N/N=C\c1ccc(Sc2ccccn2)o1)c1cccc(Br)c1` tested on Cytochrome P450 2D6 (Homo sapiens); recorded AC50 was 28.2 µM (inconclusive)

Lab note: molecule `O=C(c1ccc(F)cc1)C1CCN(CCn2c(=S)[nH]c3ccccc3c2=O)CC1` tested on Cytochrome P450 2D6 (Homo sapiens); recorded AC50 was 10 µM (inconclusive)

Lab note: molecule `c1cc2c(cc1C1CCCCC1)c1c3n2CCN[C@H]3CCC1` tested on Cytochrome P450 2D6 (Homo sapiens); recorded AC50 was 12.6 µM (inconclusive)

Lab note: molecule `COc1cccc(Cn2c(=O)c(-c3cc(F)cc(F)c3)nc3cnc(N4CCNCC4)nc32)c1` tested on Cytochrome P450 2D6 (Homo sapiens); recorded AC50 was 39.8 µM (inconclusive)

Lab note: molecule `CCCCCn1c(=O)c(C(=O)c2ccccc2)nc2ccccc21` tested on Cytochrome P450 2D6 (Homo sapiens); recorded AC50 was 28.2 µM (inconclusive)

Lab note: molecule `COc1cccc(NC(=O)COC(=O)c2nc3nccc(C)n3n2)c1` tested on Cytochrome P450 2D6 (Homo sapiens); recorded AC50 was 22.4 µM (inconclusive)
